Data origin, for the record: patent USRE47150

# Experimental Target: T1, mouse tissue factor pathway inhibitor (TFPI) (mouse, UniProt O54819 29-289, limits assumed)
# T1 construct: bought; also called mTFPI; murine TFPI
# T1 sequence (looked up): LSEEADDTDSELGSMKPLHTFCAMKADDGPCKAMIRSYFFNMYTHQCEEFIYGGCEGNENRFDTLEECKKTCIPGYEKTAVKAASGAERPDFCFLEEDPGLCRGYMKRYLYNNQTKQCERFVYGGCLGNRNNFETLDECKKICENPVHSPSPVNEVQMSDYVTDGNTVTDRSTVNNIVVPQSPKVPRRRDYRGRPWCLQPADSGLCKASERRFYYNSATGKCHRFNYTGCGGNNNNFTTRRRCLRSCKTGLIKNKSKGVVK
# Experimental Details: competitive ELISA
What variant/HC_D62R was measured for each of the following?
Numbers only, in ratio.

Here are 3 binders together with their reported answers.
4B7 HC D62R+H107M+Y112D/LC F31M+D33F+N35I (Fab, V domains shown) VH: QVQLQQSGPGLVKPSQTLSLTCAISGDSVSSNSAAWSWIRQSPGRGLEWLGIIYKRSKWYNRYAVSVKSRITINPDTSKNQFSLQLNSVTPEDTAVYYCARWHSDKMWGFDDWGQGTLVTVSS VL: DIVMTQSPLSLPVTPGEPASISCRSSQSLVMSFGITYLNWYLQKPGQSPQLLIYKGSNRASGVPDRFSGSGSGTDFTLKISRVEAEDVGVYYCQQYDSYPLTFGQGTKVEIKR | 47
4B7 HC N32D+D62R+H107M+Y112D/LC F31M+S32R+D33F+N35I (Fab, V domains shown) VH: QVQLQQSGPGLVKPSQTLSLTCAISGDSVSSDSAAWSWIRQSPGRGLEWLGIIYKRSKWYNRYAVSVKSRITINPDTSKNQFSLQLNSVTPEDTAVYYCARWHSDKMWGFDDWGQGTLVTVSS VL: DIVMTQSPLSLPVTPGEPASISCRSSQSLVMRFGITYLNWYLQKPGQSPQLLIYKGSNRASGVPDRFSGSGSGTDFTLKISRVEAEDVGVYYCQQYDSYPLTFGQGTKVEIKR | 32.3
4B7 HC N32D+D62R+Y112D/LC F31Y+S32R+D33F+N35I+D97T (Fab, V domains shown) VH: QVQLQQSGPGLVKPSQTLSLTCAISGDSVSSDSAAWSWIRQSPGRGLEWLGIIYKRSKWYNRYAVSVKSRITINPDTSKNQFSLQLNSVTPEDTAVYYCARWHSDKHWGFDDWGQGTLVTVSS VL: DIVMTQSPLSLPVTPGEPASISCRSSQSLVYRFGITYLNWYLQKPGQSPQLLIYKGSNRASGVPDRFSGSGSGTDFTLKISRVEAEDVGVYYCQQYTSYPLTFGQGTKVEIKR | 39.7

Could you tell me variant/HC_D62R for each of these binders? They are listed below.
1. B32.5 (4B7 HC D62R+Y112D/LC D33F+N35I) (Fab, V domains shown) VH: QVQLQQSGPGLVKPSQTLSLTCAISGDSVSSNSAAWSWIRQSPGRGLEWLGIIYKRSKWYNRYAVSVKSRITINPDTSKNQFSLQLNSVTPEDTAVYYCARWHSDKHWGFDDWGQGTLVTVSS VL: DIVMTQSPLSLPVTPGEPASISCRSSQSLVFSFGITYLNWYLQKPGQSPQLLIYKGSNRASGVPDRFSGSGSGTDFTLKISRVEAEDVGVYYCQQYDSYPLTFGQGTKVEIKR
2. 4B7 HC N32D+D62R+H107M+Y112D/LC D33R (Fab, V domains shown) VH: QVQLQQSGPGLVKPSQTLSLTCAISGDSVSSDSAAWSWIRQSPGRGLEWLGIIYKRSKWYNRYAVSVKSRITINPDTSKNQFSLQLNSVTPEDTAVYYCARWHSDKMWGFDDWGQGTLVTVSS VL: DIVMTQSPLSLPVTPGEPASISCRSSQSLVFSRGNTYLNWYLQKPGQSPQLLIYKGSNRASGVPDRFSGSGSGTDFTLKISRVEAEDVGVYYCQQYDSYPLTFGQGTKVEIKR

[20.8, 20.3]
